Numbers sourced from patent US8211883B2.

Tested on: Chinese hamster V79-379 lung fibroblasts
assay_text: Uptake of phthalocyanines into V79 cells
experimental_setup: V79 cells; average of all data; asterisk: listed value is for 1 μM, average would be higher
Description: Chinese hamster V79-379 lung fibroblasts were grown in monolayer culture in McCoy's 5A medium (Gibco Laboratories, Grand Island, N.Y.) augmented with 10% calf serum and buffered with 20 mM HEPES (pH 7.4). Total uptake was determined by scraping the phthalocyanine-treated monolayer, collecting the cells on a glass-fiber filter, and extracting the phthalocyanine in ethanol, as previously described by Ramakrishnan, et al., 1989. […]
reported_endpoint: n Moles/10^6 Cells/μM (composite uptake value) (n Moles/10^6 Cells/μM)
The reply should be a number in n Moles/10^6 Cells/μM, with the unit left off.

The recorded n Moles/10^6 Cells/μM (composite uptake value) for entry C[Si](C)(CCCCNS(C)(=O)=O)O[Si]1(O)n2c3c4ccccc4c2N=C2N=C(N=c4c5ccccc5c(n41)=NC1=NC(=N3)c3ccccc31)c1ccccc12 (stereo not drawn) equals 0.3

The recorded n Moles/10^6 Cells/μM (composite uptake value) for entry CCCCN1CCN(CCC[Si](C)(C)O[Si]2(O)n3c4c5ccccc5c3N=C3N=C(N=c5c6ccccc6c(n52)=NC2=NC(=N4)c4ccccc42)c2ccccc23)CC1 (stereo not drawn) equals 0.3

The recorded n Moles/10^6 Cells/μM (composite uptake value) for entry C[Si](C)(CCCO)O[Si]1(O)n2c3c4ccccc4c2N=C2N=C(N=c4c5ccccc5c(n41)=NC1=NC(=N3)c3ccccc31)c1ccccc12 (stereo not drawn) equals 0.4

The recorded n Moles/10^6 Cells/μM (composite uptake value) for entry CCN(CCC[Si](C)(C)O[Si]1(O)n2c3c4ccccc4c2N=C2N=C(N=c4c5ccccc5c(n41)=NC1=NC(=N3)c3ccccc31)c1ccccc12)CCN(C)C (stereo not drawn) equals 0.7

----------
Tested on: RIF-1 (radiation-induced fibrosarcoma) tumors
assay_text: PDT of RIF-1 implanted tumors
Assay type: in vivo, C3H/HeN mice
experimental_setup: 1 mg/kg in corn oil, 675 nm, 135 J/cm^2; controls 4 days
Please provide measured Doubling Time of Initial Tumor Volume after PDT for the entries that follow.
The reply should be a number in days, with the unit left off.

The recorded Doubling Time of Initial Tumor Volume after PDT for entry C[Si](C)(CCCCNS(C)(=O)=O)O[Si]1(O[Si](C)(C)CCCCNS(C)(=O)=O)n2c3c4ccccc4c2N=C2N=C(N=c4c5ccccc5c(n41)=NC1=NC(=N3)c3ccccc31)c1ccccc12 [Compound VIII, SiPc[OSi(CH3)2(CH2)4NHSO2CH3]2] equals 4

The recorded Doubling Time of Initial Tumor Volume after PDT for entry CN(C)CCC[Si](C)(C)O[Si]1(O[Si](C)(C)CCCN(C)C)n2c3c4ccccc4c2N=C2N=C(N=c4c5ccccc5c(n41)=NC1=NC(=N3)c3ccccc31)c1ccccc12 [Compound XII, SiPc[OSi(CH3)2(CH2)3N(CH3)2]2] equals 20

The recorded Doubling Time of Initial Tumor Volume after PDT for entry CN(C)CCC[Si](C)(C)O[Si]1(O)n2c3c4ccccc4c2N=C2N=C(N=c4c5ccccc5c(n41)=NC1=NC(=N3)c3ccccc31)c1ccccc12 (centres unmarked) equals 16

The recorded Doubling Time of Initial Tumor Volume after PDT for entry C[Si](C)(CCCCNS(C)(=O)=O)O[Si]1(O)n2c3c4ccccc4c2N=C2N=C(N=c4c5ccccc5c(n41)=NC1=NC(=N3)c3ccccc31)c1ccccc12 (centres unmarked) equals 11

The recorded Doubling Time of Initial Tumor Volume after PDT for entry `CCN(CCC[Si](C)(C)O[Si]1(O[Si](C)(C)CCCN(CC)CCN(C)C)n2c3c4ccccc4c2N=C2N=C(N=c4c5ccccc5c(n41)=NC1=NC(=N3)c3ccccc31)c1ccccc12)CCN(C)C` equals 12
